These entries and their values trace back to paper PMC5540273.

- Test system: PIP5K2B
- run-parameters: concentration: 1 μM, replicates: in singlicate; n = 1;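 further: KINOMEscan kinase panel screen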
measurement-label: %Inh

| compound | reported |
| --- | --- |
| CN1c2ccc(-c3ccc(C(=O)NCCO)cc3)cc2-c2[nH]ncc2S1(=O)=O | 0% |
| COc1ccc(Nc2nccc(N3CCC(NC(=O)c4cccc(NC(C)=O)c4)C3)n2)cc1 (stereo not shown) [GSK1379732] | 12% |
| CNc1nccc(-c2c(-c3ccc(F)cc3)ncn2C2CCN(C)CC2)n1 [SB-222903] | 0% |
| CCc1nc(-c2cccc(N(C)S(=O)(=O)c3ccccc3)c2)c(-c2ccnc(Nc3ccc(N4CCN(C(C)=O)CC4)nc3)n2)s1 [GSK1645895] | 0% |

----------
- Tested on: MAP3K4
- run-parameters: concentration: 1 μM, replicates: in singlicate; n = 1
hey, just use criterion met if measured %Inh is less than 1%, otherwise criterion not met

| smiles-representation | assigned-label |
| --- | --- |
| COC(=O)c1c(-c2ccccc2)c2cc(Cl)ccc2c(=O)n1Cc1ccc(S(C)(=O)=O)cc1 | criterion met |
| CCC(CC)(CC)n1cnc2c(N)ncnc21 | criterion met |
| Cn1cc(-c2ccc3c(c2)CCN3C(=O)Cc2cccc(C(F)(F)F)c2)c2c(N)ncnc21 | criterion not met |
| CN1c2ccc(-c3ccc(C(=O)NCCO)cc3)cc2-c2[nH]ncc2S1(=O)=O | criterion met |
| Clc1ccc(-c2cc(-c3c[nH]nc3-c3ccccn3)ccn2)cc1 | criterion not met |
| CC(C)(C)c1ccc(-n2cnc3c(N)ncnc32)cc1 | criterion not met |
| CS(=O)(=O)CCNCc1ccc(-c2ccc3ncnc(Nc4ccc(OCc5ccccc5)c(Cl)c4)c3c2)o1.Cl | criterion met |
| Cl.c1ccc(Cn2ncc3cc(Nc4ncnc5ccccc45)ccc32)cc1 | criterion met |

----------
- System: PIK3CG
- run-parameters: concentration: 1 μM, replicates: in singlicate; n = 1
measurement-label: %Inh (%)

| compound | scale-unit | reported |
| --- | --- | --- |
| FC(F)(F)c1ccc(-c2cc(-c3c[nH]nc3-c3ccccn3)ccn2)cc1 | % | 1 |
| CC(C)(C)c1ccc(-n2cnc3c(N)ncnc32)cc1 | % | 100 |
| Cl.Cn1ccc(-c2cccc(Nc3ccnc4cc(-c5nccs5)ccc34)c2)n1 | % | 0 |
| C[C@H]1CC[C@@H](C(=O)Nc2ccccc2)CN1c1cc(-c2ccc3c(N)n[nH]c3c2)nc(N)n1 | % | 0 |
| Cc1ccc(O)cc1Nc1cc(C(F)(F)F)nc2ccc(-c3ccncc3)cc12 | % | 0 |
| COc1cc2c(Nc3cccc(NC(=O)c4ccccc4)c3)ncnc2cc1OCCCN1CCOCC1 | % | 0 |
| Nc1nc(-c2ccc3c(N)n[nH]c3c2)cc(N2CCCCC2)n1 | % | 0 |
| COC(=O)c1cccc(NC(=O)NCCNc2ccnc(Nc3ccc(F)cc3)n2)c1 | % | 8 |
| OCCOCCn1ccc2ncnc(Nc3ccc(Oc4cccc(Cl)c4)c(Cl)c3)c21 | % | 0 |
| CN1CCC(n2cnc(-c3ccc(F)cc3)c2-c2ccnc(NC3CCNCC3)n2)CC1 | % | 34 |
| CN1c2ccc(-c3ccc(C(=O)NCCO)cc3)cc2-c2[nH]ncc2S1(=O)=O | % | 0 |
| Clc1ccc(-c2cc(-c3c[nH]nc3-c3ccccn3)ccn2)cc1 | % | 0 |
| O=C(Nc1n[nH]c2nc(-c3ccco3)c(Br)cc12)c1ccc(CN2CCCC2)cc1.O=C(O)[C@H](O)[C@@H](O)C(=O)O | % | 5 |
| O=C(Nc1ccccc1F)NC1CCN(c2ccnc(Nc3ccc(F)cc3)n2)C1 (stereo not shown) | % | 0 |
| COC(=O)c1c(-c2ccccc2)c2cc(Cl)ccc2c(=O)n1Cc1ccc(S(C)(=O)=O)cc1 | % | 25 |
| COc1ccc(-c2oc3ncnc(N)c3c2-c2ccc(OC)cc2)cc1 | % | 10 |
| CCc1nc(-c2cccc(C)c2)c(-c2ccnc(NC(=O)c3ccccc3)c2)s1 | % | 0 |
| Fc1cccc(COc2ccc(Nc3ncnc4nn5ccccc5c34)cc2Cl)c1 | % | 0 |
| O=C(Nc1ccccc1)Nc1ccc(Oc2ccc3nccn3n2)cc1 | % | 0 |
| Fc1cccc(COc2ccc(Nc3ncnc4sc(-c5ccc[nH]5)cc34)cc2Cl)c1 | % | 0 |
| Cc1ccc(C)c(NC(=O)NCCNc2ccnc(Nc3ccc(F)cc3)n2)c1 | % | 0 |
| Fc1cccc(COc2ccc(Nc3ncnc4cc[nH]c34)cc2Cl)c1 | % | 9 |
